Recorded measurements of TGI, one per entry
test system: HOP-18 NSCLC; experiment: NCI tumour cell line growth inhibition, 48 h

>  <Compound>
CC(C)=CCCc1c(C)ccc2c1C(=O)C(=O)C(C(C)C)=C2

>  <Target Under Test>
HOP-18 NSCLC

>  <TGI>
8.12 µM

$$$$
>  <Compound>
Cc1nc2c(nc1C)C(=O)c1ccccc1C2=O

>  <Target Under Test>
HOP-18 NSCLC

>  <TGI>
9.53 µM

$$$$
>  <Compound>
COc1cc2cnc3c4cc(OC(C)C)c(OC)cc4ccc3c2cc1OC

>  <Target Under Test>
HOP-18 NSCLC

>  <TGI>
> 100 µM

$$$$
>  <Compound>
CC(=O)C(CN(C(C)C)C(C)C)C(c1ccccc1)c1c(O)c2ccccc2oc1=O (stereo not given)

>  <Target Under Test>
HOP-18 NSCLC

>  <TGI>
> 100 µM

$$$$
>  <Compound>
CCOC(=O)c1ncn2c1[nH]c(=S)c1ccccc12

>  <Target Under Test>
HOP-18 NSCLC

>  <TGI>
> 100 µM

$$$$
>  <Compound>
O=c1cc(-c2cccc(O)c2)[nH]c2cc3c(cc12)OCO3

>  <Target Under Test>
HOP-18 NSCLC

>  <TGI>
> 100 µM

$$$$
>  <Compound>
C=CCc1cc(OC)c2c(c1)C(O)CC(c1ccc(OC)c(OC)c1)O2 (stereo not given)

>  <Target Under Test>
HOP-18 NSCLC

>  <TGI>
> 100 µM

$$$$
>  <Compound>
O=C(/C=C/c1ccccc1Cl)c1ccc(Cl)c(Cl)c1

>  <Target Under Test>
HOP-18 NSCLC

>  <TGI>
32 µM

$$$$
>  <Compound>
NC(CCc1nc(-c2ccc(Cl)cc2)cs1)C(=O)O (stereo not given)

>  <Target Under Test>
HOP-18 NSCLC

>  <TGI>
> 100 µM

$$$$
>  <Compound>
C[n+]1c2ccccc2c(NCC(=O)O)c2ccccc21

>  <Target Under Test>
HOP-18 NSCLC

>  <TGI>
> 100 µM

$$$$
>  <Compound>
N#CC(C#N)=c1ccc(=C2NCC3CCCN23)cc1 (stereo not given)

>  <Target Under Test>
HOP-18 NSCLC

>  <TGI>
> 100 µM

$$$$
>  <Compound>
CC1CN1P1(N2CC2C)=NP(N2CC2C)(N2CC2C)=NP(N2CC2C)(N2CC2C)=N1 (stereo not given)

>  <Target Under Test>
HOP-18 NSCLC

>  <TGI>
> 50 µM

$$$$
>  <Compound>
CCCCCCNC(=O)C(C)C1CCC2(C)C=CC(=O)C(C)=C2C1O (stereo not given)

>  <Target Under Test>
HOP-18 NSCLC

>  <TGI>
> 100 µM

$$$$
>  <Compound>
N/C(=N\N=C/c1ccc(O)c(O)c1O)NO

>  <Target Under Test>
HOP-18 NSCLC

>  <TGI>
> 100 µM

$$$$
>  <Compound>
O=C1N(Cl)C(=O)C(c2ccc(Cl)cc2)(c2ccc(Cl)cc2)N1Cl

>  <Target Under Test>
HOP-18 NSCLC

>  <TGI>
> 100 µM

$$$$

These measurements were taken from PubChem BioAssay (NCI).
